# experiment.description: protein stability index of a GFP-peptide fusion (yeast GPS) (PSI 1-4); higher = more stable; sorted into four equal gates, so the index is relative within each strain
# measurement.conditions: san1∆
Could you label it YES if measured protein stability index is 3 or higher, and NO otherwise?

sequence.input	qualitative.label
RLDSYKVIEQPITSETA [RPL25]	NO
NVTLVNGKRRMNPGPSV [RPS30A]	NO
SELIRTTLDAEKVFTQG [FAS1]	YES
NDKLIVDNDNWVYKTKG [RPN1]	YES
NVASLVRVQFQFTGFLL [GRR1]	NO
AKEKERMLEEAIDHLKA [YIL149C/MLP2]	YES
VTEANIIKLVEGLANDP [RPS12]	NO
HVKAGKGLIKVNGSPIT [RPS16A]	NO
ELVKAHLGERAASVIGM [RPC82]	NO
IWKESLIELSGGQRSLI [SMC2]	NO
YPIYELLMSCPRLSHLS [GRR1]	NO
AASSQVSIVKLDTQLIT [SNF12]	NO
IREKVAKQALDLYHFAL [SNF2]	NO

====

# experiment.description: protein stability index of a GFP-peptide fusion (yeast GPS) (PSI 1-4); higher = more stable; sorted into four equal gates, so the index is relative within each strain
# measurement.conditions: doa10∆
metric: protein stability index

sequence.input	numeric.value
ALMRCSFEETVEILFEA [RPO21]	3.12
NWRLVEVGRVVLIKKGQ [RPL14A]	2.17
AAESKKYRQTKLSKEER [RPL5]	3.1
EDSMIMNQSSIDRGLFR [RPB2]	2.55
EILVEESGLRPVSLLNS [PCI8]	2.63
ENPDLSTKKKILGIHTS [RPT2]	2.8
NLRKSRGMLGLLEPPAK [RPO31]	1.61
LYQSKGRYMEALALYVD [SRP68]	1.86
SKSLQESGDTQEEDEEE [RPC82]	3.5
YINDVHLLYPPHIIAVA [SSN8]	1.74
VKSVNDPSQNRLTGSLL [RPC37]	3.16
GEICKNYELEKIADNIS [YDL116W/NUP84]	3.13
YGNRAEQFLETDSDFAK [SRP68]	3.15
RVKIANTSAATVHTATS [SSN2]	2.86
LPLNKPRLEKLINEILL [RGR1]	2.53
EGAEPGPPYTTDEHLIF [ISW2]	2.91
ADKRGVLTGGYLDQHKR [SMC3]	2.46
YPESISNELIEHFSHFG [YDL088C/ASM4]	2.76
ENIIQMEMIENRTMDGK [FAS1]	2.78
DKIHARARGPMQVLTRQ [RPB2]	3.16
ANNYSSNIGNNSINNNN [YDL088C/ASM4]	2.51
KAERVEDQKVVDKALIA [RPL6A]	3.25
DKKVTLITSEMFDAFVS [SIN4]	1.56
KTVAVDSVFEQNEMIDA [RPL3]	2.57
NANEISANTNNTCTIST [SWP82]	2.61
QNNEQNPIDPFNIIREF [YDL116W/NUP84]	3.07
VTTCVYLACKVEECPQY [SSN8]	1.93
LAKYRDAGKIDKHLYHV [RPL19A]	3.3
NTSLNINGWKFESLPLK [SWP82]	2.88
VEKGTPLGKILLKGDNI [SME1]	3.58

====

# experiment.description: protein stability index of a GFP-peptide fusion (yeast GPS) (PSI 1-4); higher = more stable; sorted into four equal gates, so the index is relative within each strain
# measurement.conditions: ubr1∆
Each item that follows carries a reported protein stability index.
metric: protein stability index

sequence.input	metric	numeric.value
TWRTQLAASEIGISIVG [ECM29]	protein stability index	1.88
SCTLLERGHPKDNARIY [POP1]	protein stability index	2.99
EIPEGVTVSIKSRIVKV [RPL9B]	protein stability index	1.35
RQQQENSSKIITLDLSN [SMC1]	protein stability index	3.18
VALPPGSNYNPYFPGGS [CYT1]	protein stability index	2.64
NDLRVSLNEKNALHTER [SMC1]	protein stability index	2.81
KFILSGFIFTSMILEAI [RRI2]	protein stability index	1.11
PYAIIKGKARLGTLVNQ [RPL8B]	protein stability index	2
ELAKEAKKSTTISKEST [ESC2]	protein stability index	2.85
RTKTPGPGGQAALRALA [RPS14B]	protein stability index	2.46
TINKAVQVKVLGKYEFS [ESC2]	protein stability index	2
HLERNRKDKDAKFRLIL [RPS13]	protein stability index	3.52
GHEELKRRIEEEQEKIN [ISW2]	protein stability index	3.35
ISKHSKQAIYTRAAASE [RPS25B]	protein stability index	2.86
KNEKLKFQETLLRQKIE [ISW2]	protein stability index	1.15
PNVFDKDSYVRIANIEQ [YDL088C/ASM4]	protein stability index	3.22
VYTQSNGKTRTLENTLK [RPS2]	protein stability index	3.38
NKGELETQPGCNEEQTL [RPO31]	protein stability index	3.2
DNISSFHSAVENLVQGN [YCG1]	protein stability index	3.31
SVIPEVDREAMLKPNII [YCG1]	protein stability index	3.05
RGRPPKARNGLDYVRTP [SNF2]	protein stability index	3.09
VVGQNQLIDQFEWDISN [SNF5]	protein stability index	3
KQRFQGCNNLIKNISNR [ARP9]	protein stability index	3.03
QHIYPSSTPGVANYSAM [GAL11]	protein stability index	2.81
VENLTVAQECIAFLKKQ [SMC1]	protein stability index	1.98
LECQLFPQGLNIVMDSK [SSN8]	protein stability index	2.46
KTKKEKGPNEEEKKKEH [RPN2]	protein stability index	3.13
RRVPKELAVENPLAKTM [SEC65]	protein stability index	1.69
QKSFEQLNSRAVAVVVD [RPN11]	protein stability index	1.48
GKSEKLSLLLVEDKIPL [SKI6]	protein stability index	3.27
EFLFESLKNDLPQFRSS [ECM29]	protein stability index	3

====

# experiment.description: protein stability index of a GFP-peptide fusion (yeast GPS) (PSI 1-4); higher = more stable; sorted into four equal gates, so the index is relative within each strain
# measurement.conditions: san1∆
metric: protein stability index

sequence.input	metric	result
HHRIFDSSAHFKGALTI [YMR129W/POM152]	protein stability index	2.44
FDYMNRYWVQKERSDGK [CDC53]	protein stability index	2.39
TKGENYQLVKTLGEQLI [FAS2]	protein stability index	2.6
ILEVGALASIQTFNFDS [RPN12]	protein stability index	2.96
PPKHTELLLTTLSVSHG [SSN2]	protein stability index	1.55
PHQSPDATRVFVNGVWH [RPB2]	protein stability index	2.98
LTIVTCKQFPKLSCIQL [SRB8]	protein stability index	1.46
IGSTSKRPIESGTSSDP [YIL149C/MLP2]	protein stability index	3.17
HDYWNKIMQSISNKDVI [SRB4]	protein stability index	1.33
WPIVQKTYEPVLNEDDL [RPN5]	protein stability index	1.85
SVARVEDHDVHSNESSN [IRR1]	protein stability index	3.01
SINISCVQLIKCLVEKS [SWI1]	protein stability index	2.27
QFNAITGLNGSGKSNIL [SMC2]	protein stability index	3.18
NALHTERLHELKKLQSD [SMC1]	protein stability index	3.18
MFTYSQETQHGNITRGL [RPN2]	protein stability index	3.13
IITQYVFESLEINNLIQ [ARP9]	protein stability index	2.8
MATLEELDAQTLPGDDE [RPT5]	protein stability index	3.35
LHIHGSSNPLGITGNLD [COB]	protein stability index	2.7
LLIATNLKEYNKFMSIF [SRB8]	protein stability index	2.17
ISKHSKQAIYTRAAASE [RPS25B]	protein stability index	2.6
MKQYRDFLGVASTGSGK [PRP28]	protein stability index	2.88
LISRMIFIATQLEKKIR [BRR2]	protein stability index	1.28
TGKITKMFQDIRLSKIL [CDC53]	protein stability index	2.66
FSKFERSKSSHKNERRV [SKI6]	protein stability index	3
EKSPDPTIRSNAVLGLG [YCS4]	protein stability index	2.3
LREAPADYWTHAYRDVL [SNF6]	protein stability index	3.42
ARKELPIFDYIHIDALE [SIR3]	protein stability index	2.21
PHELTESVLPAARYDYA [QCR2]	protein stability index	2.09
SDPAAKKTATEPKQKAN [SRP21]	protein stability index	3.32
KIGPLGLSPKKVGEDIA [RPL12A]	protein stability index	3.27
VALPPGSNYNPYFPGGS [CYT1]	protein stability index	2.65
KKFVSQIQKNVDLLQFP [POP3]	protein stability index	3.34
EMDEKSYEKNEDHVEDH [LIN1]	protein stability index	3.49
LPTTVVSNPGDNPPPAD [MED2]	protein stability index	3.04
NSIWGSSLRKNASGNKR [ITC1]	protein stability index	2.5
LEIASSIDCLLILILVI [SWI1]	protein stability index	2.34
LTEEELKTRYVGRQDPK [RPN11]	protein stability index	3.26
VEEVIKLVRDSFTSATE [PRE7]	protein stability index	3.18
TNVPKAKKRKTLILIQN [SIR3]	protein stability index	1.33
IGTKRFDSEKSGDREVQ [RPT5]	protein stability index	2.8
QNIETRQLANLIPFIVK [NUT1]	protein stability index	1.41
QNIMTLPDGKNGNLEEE [MED6]	protein stability index	3.37
VEQDEGQCRTELEGSFN [YCS4]	protein stability index	3.12
NKLFTEPIKLEPVKEYT [YMR129W/POM152]	protein stability index	2.4
KENKKRKNFKMGPLYQN [IRR1]	protein stability index	2.05
KVFVPPKSKSLPNEMSQ [RPO31]	protein stability index	3.09
ENELFNDRKQTTVSNDL [SSN2]	protein stability index	3.11
YTKETYQSRGIDAMKAV [RPN6]	protein stability index	2.83
LLVKFIKFFWNNTHVGR [YLR018C/POM34]	protein stability index	2.51
LWVFQAFTCFCIKKIME [SRB8]	protein stability index	1.27
HAPAYHRSKKDQDQYLE [IRR1]	protein stability index	2.95
DVYSPEKGSWEQLSPQD [BRR2]	protein stability index	2.47
AQANNNNNGLPQNGNIN [GAL11]	protein stability index	3.05
QTRKEYNTSILEFRWLT [SIN4]	protein stability index	1.83
QRDLYKRKEELVSTLTT [SMC2]	protein stability index	2.64
RKQIDETQVLVSTPEKW [BRR2]	protein stability index	2.31
AQYCYKNGLYQEAFKIY [SRP72]	protein stability index	3.1
SAIDVLDPLTKDPVDFV [RPN2]	protein stability index	3.15
RVKDPQWLIMLGICTHL [RIP1]	protein stability index	2.36
ADKRGVLTGGYLDQHKR [SMC3]	protein stability index	2.72
VSVLLISKDCSAFACKT [BRR2]	protein stability index	2.21
